Experiment: Cytotoxicity against human HepG2 cells after 72 hrs by MTT assay
Format: cell-based
value_type: CC50 at 72 h

Illustrative cases are given below, each with its answer.
Cc1ccc2cc([N+](=O)[O-])ccc2n1; > 100 µM
O=[N+]([O-])c1cccc2nc(Cl)ccc12; > 100 µM
O=Cc1ccc2c([N+](=O)[O-])cccc2n1; 92 µM
Oc1ccc2ccccc2n1; > 100 µM
O=[N+]([O-])c1cccc2ncccc12; > 100 µM
O=Cc1ccc2ccccc2n1; > 100 µM
O=[N+]([O-])c1cccc2cccnc12; > 100 µM
O=[N+]([O-])c1ccc2nc(O)ccc2c1; > 100 µM

What value of CC50 at 72 h has been reported for the following compound? O=[N+]([O-])c1cccc2nc(O)ccc12
> 100 µM

What value of CC50 at 72 h has been reported for the following compound? Cc1ccc2cccc([N+](=O)[O-])c2n1
> 100 µM

What value of CC50 at 72 h has been reported for the following compound? Cc1ccc2ccccc2n1
> 100 µM

What value of CC50 at 72 h has been reported for the following compound? N=C(N)c1ccc(OCCCCCOc2ccc(C(=N)N)cc2)cc1
2.3 µM

What value of CC50 at 72 h has been reported for the following compound? Clc1ccc2ccccc2n1
> 100 µM

What value of CC50 at 72 h has been reported for the following compound? CCCCCCCCCCCCCCCCOP(=O)([O-])OCC[N+](C)(C)C
50.3 µM

What value of CC50 at 72 h has been reported for the following compound? c1ccc2ncccc2c1
> 100 µM

====

Assay: Cytotoxicity against mouse J774A1 cells after 72 hrs by MTT assay
Format: cell-based, J774.A1
value_type: CC50 at 72 h

Illustrative cases are given below, each with its answer.
O=[N+]([O-])c1ccc2nc(O)ccc2c1; 83.7 µM
O=[N+]([O-])c1cccc2nc(Cl)ccc12; > 100 µM
O=[N+]([O-])c1cccc2nc(O)ccc12; > 100 µM
Cc1ccc2cccc([N+](=O)[O-])c2n1; > 100 µM
c1ccc2ncccc2c1; > 100 µM

What value of CC50 at 72 h has been reported for the following molecule? Cc1ccc2ccccc2n1
> 100 µM

What value of CC50 at 72 h has been reported for the following molecule? N=C(N)c1ccc(OCCCCCOc2ccc(C(=N)N)cc2)cc1
1 µM

What value of CC50 at 72 h has been reported for the following molecule? O=[N+]([O-])c1cccc2ncccc12
> 100 µM
